Listed next: entries and their corresponding melting point.

Here is how some compounds turned out for melting point.
# compound, melting point
rows = [
    ("CCN(C)/C=N/c1cc(OC)c(C(O)(C2CC2)C(F)(F)F)cc1C (stereo not drawn) [Compound E1.052]", "64 to 72 °C"),
    ("CCN(C)/C=N/c1cc(OC)c(C(O)(c2ccc(C#N)cc2)C(F)(F)F)cc1C (stereo not drawn) [Compound E1.040]", "167 to 169 °C"),
    ("CCN(C)/C=N/c1cc(OC)c(C(O)(c2ccccc2S(C)(=O)=O)C(F)(F)F)cc1C (stereo not drawn) [Compound E1.036]", "177 to 180 °C"),
    ("COc1cc(/N=C/N2CCCC2)c(C)cc1C(O)(C(C)C)C(F)(F)F (stereo not drawn) [Compound E1.135]", "102 to 104 °C"),
]

(Q) # lookup: melting point of C=CCC(O)(c1cc(C)c(/N=C/N(C)C(C)C)cc1OC)C(F)(F)F (stereo not drawn) [Compound E1.084]
(A) 45 to 50 °C

(Q) How about this compound: CCN(C)/C=N/c1cc(OC)c(C(O)(c2ccc(Cl)cc2Cl)C(F)(F)F)cc1C (stereo not drawn) [Compound E1.017]
(A) 119 to 121 °C
